Source listed as patent US10829473B2.

System Under Test: F508delCFTR (Homo sapiens, UniProt P13569, DEL508-508)
Construct: expressed in transfected cells; host or cells: CFBE41o- human lung derived epithelial cells (CFBE41o-F508delCFTR-HRP), doxycycline-inducible
Sequence (P13569 with tags, fused parts or gaps DEL508-508): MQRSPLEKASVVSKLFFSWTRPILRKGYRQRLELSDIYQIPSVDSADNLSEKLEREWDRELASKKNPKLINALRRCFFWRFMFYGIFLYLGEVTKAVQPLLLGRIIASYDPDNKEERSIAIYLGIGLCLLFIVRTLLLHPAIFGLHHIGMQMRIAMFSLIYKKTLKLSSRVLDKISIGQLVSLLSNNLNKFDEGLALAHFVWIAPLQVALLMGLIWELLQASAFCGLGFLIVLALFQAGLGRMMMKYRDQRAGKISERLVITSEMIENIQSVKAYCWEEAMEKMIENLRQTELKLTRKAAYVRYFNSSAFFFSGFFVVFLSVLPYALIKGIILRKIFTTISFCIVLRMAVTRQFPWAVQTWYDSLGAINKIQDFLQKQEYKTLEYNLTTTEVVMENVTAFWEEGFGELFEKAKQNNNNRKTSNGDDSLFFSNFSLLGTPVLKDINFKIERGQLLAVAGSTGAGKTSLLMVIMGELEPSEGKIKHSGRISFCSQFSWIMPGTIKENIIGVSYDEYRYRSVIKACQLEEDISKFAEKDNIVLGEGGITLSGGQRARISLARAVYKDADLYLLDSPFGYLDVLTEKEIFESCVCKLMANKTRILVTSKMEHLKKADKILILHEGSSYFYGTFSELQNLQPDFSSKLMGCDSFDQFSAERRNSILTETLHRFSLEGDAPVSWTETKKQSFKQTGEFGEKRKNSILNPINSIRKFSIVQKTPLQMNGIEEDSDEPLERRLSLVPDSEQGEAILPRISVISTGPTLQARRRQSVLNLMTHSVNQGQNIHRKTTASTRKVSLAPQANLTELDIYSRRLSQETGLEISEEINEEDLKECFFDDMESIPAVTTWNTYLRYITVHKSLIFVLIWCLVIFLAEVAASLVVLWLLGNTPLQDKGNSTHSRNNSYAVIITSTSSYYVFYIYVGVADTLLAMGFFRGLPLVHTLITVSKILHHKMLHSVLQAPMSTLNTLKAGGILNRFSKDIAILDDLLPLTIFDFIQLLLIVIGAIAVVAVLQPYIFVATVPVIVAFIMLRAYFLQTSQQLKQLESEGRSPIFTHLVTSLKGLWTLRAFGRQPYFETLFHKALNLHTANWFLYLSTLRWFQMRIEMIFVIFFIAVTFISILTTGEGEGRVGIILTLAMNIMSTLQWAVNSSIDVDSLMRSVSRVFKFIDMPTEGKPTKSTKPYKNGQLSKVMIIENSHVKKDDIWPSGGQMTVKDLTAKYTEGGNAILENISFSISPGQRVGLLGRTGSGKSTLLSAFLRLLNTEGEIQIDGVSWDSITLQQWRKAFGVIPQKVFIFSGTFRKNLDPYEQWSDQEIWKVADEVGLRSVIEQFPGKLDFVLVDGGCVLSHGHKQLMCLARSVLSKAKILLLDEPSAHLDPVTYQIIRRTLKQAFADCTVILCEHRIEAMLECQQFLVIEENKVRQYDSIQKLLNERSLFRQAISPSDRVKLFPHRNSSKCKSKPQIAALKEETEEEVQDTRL
Assay Method Text: Cell Surface Expression-Horse Radish Peroxidase (CSE-HRP) Assay;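 also: co-corrector chromenyl benzoic acid corrector at 2 or 3 µM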
Type: cell-based
Condition Set: test compound with co-corrector; read-out: EC50 (with co-corrector)
Measure Name: EC50

COC1CCN(c2ncc(C3CCC3)cc2C2(C(=O)NS(=O)(=O)c3cccc4[nH]ccc34)CC2)CC1 = < 3 µM

Any idea what its EC50 is? The compound is CC(C)COc1ccc(OC(C)C)c(C2(C(=O)NS(=O)(=O)c3cccc4ncccc34)CC2)n1 < 3 µM

If you can, please state the reported EC50 value of COCCOc1ncc(C2CCC2)cc1C1(C(=O)NS(=O)(=O)c2cccc3nc(C)ccc23)CC1 . < 3 µM

Which value of EC50 has been reported for O=C(NS(=O)(=O)c1cccc2c1CCCN2)C1(c2ccc(C(F)(F)F)nc2Cl)CC1 in the records? > 10 µM

Value lookup for EC50; key = Cc1ccc2c(S(=O)(=O)NC(=O)C3(c4cc(N5CCCC5)cnc4OC(C)C)CC3)cccc2n1 < 3 µM

Endpoint output: EC50 of COc1cnc(OCC2CC2)c(C2(C(=O)NS(=O)(=O)c3cccc4[nH]ccc34)CC2)c1 . Value? < 3 µM

If you can, please state the reported EC50 value of COc1cnc(OCC2CC2)c(C2(C(=O)NS(=O)(=O)c3cccc4ncccc34)CC2)c1 . < 3 µM

Fill in the blank: the reported EC50 of Cc1ccc2c(S(=O)(=O)NC(=O)C3(c4cc(OC(C)C)cnc4OC(C)C)CC3)cccc2n1 is ____. < 3 µM

What measured EC50 goes with Cc1ccc2c(S(=O)(=O)NC(=O)C3(c4cc(N5CCC5)cnc4OC(C)C)CC3)cccc2n1 ? < 3 µM

// lookup EC50 for CCc1cnc(OCC2CC2)c(C2(C(=O)NS(=O)(=O)c3cccc4[nH]ccc34)CC2)c1 < 3 µM

// EC50 lookup, key: COc1cc(C2(C(=O)NS(=O)(=O)c3cccc4ncccc34)CC2)c(C)cn1 3 to 10 µM

For CC(C)Oc1ccc(C2CCC2)nc1C1(C(=O)NS(=O)(=O)c2cccc3[nH]ccc23)CC1 , what is its reported EC50? < 3 µM

Item under review: CCc1ccc(OC(C)C)c(C2(C(=O)NS(=O)(=O)c3cccc4ncccc34)CC2)n1 . Reported EC50? < 3 µM

GET /values?readout=EC50&item= COCCOc1ncc(C)cc1C1(C(=O)NS(=O)(=O)c2cccc3ncccc23)CC1 3 to 10 µM

Sample Cc1cnc(C2(C(=O)NS(=O)(=O)c3cccc4[nH]ccc34)CC2)c(C2CC2)c1 — what was its EC50? 3 to 10 µM

Name the reported EC50 value associated with the compound CN1CCN(c2ncc(C3CCC3)cc2C2(C(=O)NS(=O)(=O)c3cccc4ncccc34)CC2)CC1 > 10 µM
